# System: SNB-19
# TEST NAME: NCI tumour cell line growth inhibition, 48 h
Active and inactive are the calls of the source. Rule as the data show it: active = GI50 up to about 1.1 µM and inactive = higher. Non-standard residues stand in square brackets, D forms with d. Residues, ends and D or L forms follow the SMILES beside them. *: point of attachment. hSer = N[CH](CCO)C(=O)O; Boc = CC(C)(C)OC(=O)*
Outcome codes: Yes for active, No for inactive

{"columns": ["COMPOUND", "CLASS LABEL"],
 "data": [
  ["[O-][S+](CCCl)c1c2ccccc2nc2ccccc12 (stereo not drawn)", "No"],
  ["CCOC(=O)c1[nH]c2ccccc2c1C(=O)C[C@H](NC(=O)C(F)(F)F)C(=O)OC", "No"],
  ["S=C(N/N=C/c1ccccn1)N1CCCCCC1", "Yes"],
  ["CN(C)CCCOC(=O)C(c1ccccc1)C1(O)CCSCC1 (stereo not drawn)", "No"],
  ["COc1ccccc1C[C@@H]1OC2(C=CC(=O)C=C2)O[C@H]1Cc1ccccc1OC", "No"],
  ["CCOC(=O)c1oc2cc3c(c4c2c1-c1ccccc1N4C)C=CC(C)(C)O3", "No"],
  ["CC(C)N(C(=O)C12C3C4C1C1C2C3C41I)C(C)C (stereo not drawn)", "No"],
  ["C[C@H]1[C@H]2[C@H]3CC[C@@H]4[C@@]5(C)CC[C@H](O)C(C)(C)[C@@H]5CC[C@@]4(C)[C@]3(C)C[C@H](O)[C@@]2(C)C[C@H]2O[C@]21C", "No"],
  ["COC1=CC(=O)O/C1=C(\\OC)C1OC1c1ccccc1 (stereo not drawn)", "No"],
  ["OCC1COc2cc(Cl)c(Cl)cc2O1 (stereo not drawn)", "No"],
  ["CNC(=O)CNC(=O)N(C[C@@H]1CCCN1C(=O)[C@H](CC(C)C)NC(=O)OC(C)(C)C)C(C)C", "No"],
  ["CC1(c2ccc(Cl)cc2)C=C(c2ccc(Cl)cc2)C(C#N)=C(C(C#N)C#N)N1.CNC (stereo not drawn)", "No"],
  ["CNC(=S)NNc1ncnc2c1ncn2-c1ccc(C)cc1", "No"],
  ["COCCC(NC(=O)C(CC(C)C)NC(=O)OC(C)(C)C)C(N)=O (stereo not drawn) (Boc-Leu-[hSer](Me)-NH2; configuration not given here)", "No"],
  ["CCCCCCCCCCCCN1[C@H]2CCC[C@H]2C(O)[C@@H]2CCC[C@@H]21 (stereo partly drawn)", "No"],
  ["O=c1[nH]nc(Cc2ccc(Cl)cc2)n1/N=C/c1cccs1", "No"],
  ["Nc1nc(Cl)cc(NCC2(CO)CC(c3ccccc3)C2)n1 (stereo not drawn)", "No"],
  ["c1ccc2c(c1)nc1n2CSC1", "No"],
  ["O=c1oc2c(ccc3c(O)cccc32)c2c1CCCC2", "No"],
  ["COC(=O)c1c[nH]c2nc(N3CCOCC3)nn2c1=O", "No"],
  ["O=C(Nc1ccn(C2CC(O)C(COC(c3ccccc3)(c3ccccc3)c3ccccc3)O2)c(=O)n1)c1ccccc1 (stereo not drawn)", "No"],
  ["CCOC(=O)Cc1c(C)c2ccc(OC(C)=O)c(OC(C)=O)c2oc1=O", "No"],
  ["CCOC(=O)C(NC(=O)c1cccc(Cl)c1)(Nc1ccc(S(=O)(=O)Nc2cc(C)on2)cc1)C(F)(F)F (stereo not drawn)", "No"],
  ["O=C1c2cc(Cl)ccc2-n2c(noc2=O)C2CSCN12 (stereo not drawn)", "No"],
  ["Clc1ccc(OCc2nnc3n2N=C(c2ccccc2)CS3)cc1", "No"],
  ["N#C/C(=C\\c1cc(Br)c(O)c(Br)c1)c1ccccn1", "No"],
  ["Nc1cc(O)c2cc(/N=N/c3ccc(/N=N/c4ccc(/N=N/c5ccc6cc(S(=O)(=O)O)cc(S(=O)(=O)O)c6c5)c5ccccc45)c4cc(S(=O)(=O)O)ccc34)c(S(=O)(=O)O)cc2c1", "No"],
  ["O=C(O)c1cc2c(cc1CC(Cc1ccc3c(c1)CCC3)C(=O)O)CCC2 (stereo not drawn)", "No"],
  ["CC1=C(CC2C(=O)N(c3ccccc3)S(=O)(=O)NC2C)C(=O)N(c2ccccc2)S(=O)(=O)N1C (stereo not drawn)", "No"],
  ["Cc1ccc(S(=O)(=O)OCC(=O)O)cc1", "No"],
  ["COc1cc(/C=C/C(=O)O)ccc1C(=O)OCc1ccccc1", "No"],
  ["O=c1ccn(C2OC(COC3CCCCO3)C(OC3CCCCO3)C2OC2CCCCO2)c(=O)n1-c1ccccc1 (stereo not drawn)", "No"],
  ["Cc1ccc2nc(NC(=O)/C(Cc3nc4ccc(Cl)cc4nc3O)=N\\NC(C)(C)C)sc2c1", "No"]
]}

---

GI50 for assorted compounds
# Tested on: NCI-H460
# TEST NAME: NCI tumour cell line growth inhibition, 48 h
The source made the active and inactive calls. Rule as the data show it: active = GI50 up to about 1.1 µM and inactive = higher.

{"columns": ["COMPOUND", "GI50"],
 "data": [
  ["C\\C=C/C=C/C=C/C(=O)O", "> 100 µM (inactive)"],
  ["OC(C/C=N/N=C/CC(O)(C(F)(F)Cl)C(F)(F)Cl)(C(F)(F)Cl)C(F)(F)Cl", "> 10 µM (inactive)"],
  ["c1cn(C23C4C5C6C4C2C6C53)cn1 (stereo not drawn)", "> 100 µM (inactive)"]
]}

---

# Tested on: SF-295
# TEST NAME: NCI tumour cell line growth inhibition, 48 h
Activity calls are given as the source filed them. Rule as the data show it: active = GI50 up to about 1.1 µM and inactive = higher.

{"columns": ["MOLECULE", "TARGET SYSTEM", "GI50"],
 "data": [
  ["CNC(=O)CNC(=O)N(C[C@@H]1CCCN1C(=O)[C@H](CC(C)C)NC(=O)OC(C)(C)C)C(C)C", "SF-295", "> 100 µM (inactive)"],
  ["COC(=O)[C@@]12C(=O)C=CC(=O)[C@@H]1C1C(=CC2COC(C)=O)O[C@@H]2OC3(CCCCC3)O[C@H]12 (stereo not given in full)", "SF-295", "16.1 µM (inactive)"],
  ["O=C1NC2(CN3CCC2CC3)C(=O)N1CN(Cc1ccccc1)c1ccccc1 (stereo not given)", "SF-295", "> 100 µM (inactive)"],
  ["O=C1/C(=C/c2ccc(Cl)cc2)NC(=S)N1CN1CCOCC1", "SF-295", "> 100 µM (inactive)"],
  ["CC(C)(C)OC(=O)NC(CSSCC(NC(=O)OC(C)(C)C)C(=O)O)C(=O)O (stereo not given)", "SF-295", "> 100 µM (inactive)"]
]}

---

Recorded GI50, one value per entry.
# System: NCI-H522
# TEST NAME: NCI tumour cell line growth inhibition, 48 h
Activity calls are given as the source filed them. No stated cut-off is given here; in the data, active = GI50 up to about 1.1 µM and inactive = higher.
RECORDED ENDPOINT: GI50

{"columns": ["COMPOUND", "TEST VALUE"],
 "data": [
  ["Cc1nc(C)c(C(=O)NNC(=O)Cc2ccccc2)cc1C(=O)NNC(=O)Cc1ccccc1", "> 100 µM (inactive)"],
  ["O=P1(N(CCCl)CCCl)Oc2ccc(Cl)cc2C(C(Cl)(Cl)Cl)c2cc(Cl)ccc2O1 (stereo unspecified)", "8.59 µM (inactive)"],
  ["CN(C)CN1C(=O)/C(=N\\n2c(S)nnc2-c2ccncc2)c2ccccc21", "16.6 µM (inactive)"],
  ["CC(C)(C)c1ccc(O)c(CN(Cc2cc(C(C)(C)C)ccc2O)C2CCCCC2)c1", "15.8 µM (inactive)"],
  ["O=c1c2ccccc2nc(Cc2nc(-c3ccc(Cl)cc3)cs2)n1-c1ccc(Cl)cc1", "> 100 µM (inactive)"],
  ["CCOC(=O)/C=C(\\C(=O)OCC)n1ccc(=O)n(Cc2cnnn2CCCCOC(C)=O)c1=O", "1.53 µM (inactive)"],
  ["O=C(CC(=O)Nc1ccccc1Cl)NNC(c1cc(/N=N/c2ccc(Br)cc2)ccc1O)P(O)O (stereo unspecified)", "2.97 µM (inactive)"],
  ["c1cc(-c2ccc(-c3ccc(C4=NC5CCCCC5N4)cc3)o2)ccc1C1=NC2CCCCC2N1 (stereo unspecified)", "1.61 µM (inactive)"],
  ["O=C1O/C(=C\\c2ccc(O)cc2)C(c2ccc(O)c(Cl)c2)=C1Br", "6.76 µM (inactive)"],
  ["CC(NC(=O)C(OC(=O)C(C)NC(=O)OC(C)(C)C)C(C)C)C(=O)OC(C(=O)O)C(C)C (stereo unspecified)", "> 100 µM (inactive)"],
  ["C[C@H]1[C@H]2[C@H]3CC[C@@H]4[C@@]5(C)CC[C@H](O)C(C)(C)[C@@H]5CC[C@@]4(C)[C@]3(C)C[C@H](O)[C@@]2(C)C[C@H]2O[C@]21C", "22.3 µM (inactive)"]
]}

---

# Test system: SNB-78
# TEST NAME: NCI tumour cell line growth inhibition, 48 h
Active and inactive are the calls of the source. Cut-off read from the data, not from the text of the source: active = GI50 up to about 1.1 µM and inactive = higher.
RECORDED ENDPOINT: GI50

{"columns": ["MOLECULE", "TARGET SYSTEM", "RECORDED ENDPOINT", "TEST VALUE"],
 "data": [
  ["CC(=O)Oc1ccc(Nn2c3ccccc3c3ccccc32)c(C)c1", "SNB-78", "GI50", "39.4 µM (inactive)"],
  ["COc1c(O)c2c3c(c(C)cc(O)c3c1O)C(=O)C(O)(C(C)(C)C(C)=O)C2=O (stereo unspecified)", "SNB-78", "GI50", "71.8 µM (inactive)"],
  ["COC(=O)c1c[nH]c2nc(N3CCOCC3)nn2c1=O", "SNB-78", "GI50", "> 100 µM (inactive)"],
  ["O=C(Nc1ccccc1)O/N=C1/CCCC/C1=C\\c1ccccc1", "SNB-78", "GI50", "12.4 µM (inactive)"],
  ["COc1ccc2c(c1)[n+]([O-])c(-c1cccc(Cl)c1)c(N)[n+]2[O-]", "SNB-78", "GI50", "79.8 µM (inactive)"],
  ["CCOc1ccccc1NC(=O)C1=C(C)NC(C)=C(C(=O)Nc2ccccc2OCC)C1c1cccc([N+](=O)[O-])c1", "SNB-78", "GI50", "23.5 µM (inactive)"],
  ["CC1NOC(=O)C1/N=N/c1ccccc1Br (stereo unspecified)", "SNB-78", "GI50", "26.5 µM (inactive)"],
  ["CC1=C(C(=O)NCc2ccccc2)C(c2ccc(Cl)c(Cl)c2)C(C(=O)NCc2ccccc2)=C(C)N1", "SNB-78", "GI50", "> 100 µM (inactive)"],
  ["Cn1c2ccccc2c2ccc3c(c21)C(=O)C(c1ccccc1)=CC3=O", "SNB-78", "GI50", "> 100 µM (inactive)"],
  ["CC1(O)CC2C(CC1SCCO)C2(C)C (stereo unspecified)", "SNB-78", "GI50", "> 100 µM (inactive)"],
  ["N#CC1=C(Cl)NC(Cl)=C(C#N)C1c1ccc(Cl)cc1", "SNB-78", "GI50", "25.9 µM (inactive)"]
]}

Taken from ChEMBL document CHEMBL1201862.
